Test system: HepG2
Assay: Hepatoprotective activity against nitrofurantoin-induced cytotoxicity in human HepG2 cells after 2 hrs by MTT assay
Format: functional, cell-based
Conditions: HepG2, 2 h
measured metric: EC50 (µM)
Number in µM, nothing else.

Known EC50 results, listed for orientation:
compound: CC(C)=CC(=O)C[C@@H](C)[C@H]1CC[C@@]2(C)[C@@H]3CC[C@H]4[C@](C)(C(=O)O)[C@@H](O)C[C@H](O)[C@@]45C[C@@]35CC[C@]12C
EC50 (µM): 66.4
--
compound: CC(C)=CC(=O)C[C@@H](C)[C@H]1CC[C@@]2(C)[C@@H]3CC[C@H]4C(C)(C)C(=O)C=C[C@@]45C[C@@]35CC[C@]12C
EC50 (µM): 109
--
compound: CO[C@H]1O[C@]2(C=C(C)C(=O)O2)C[C@@H]1[C@H]1CC[C@@]2(C)[C@@H]3CC[C@H]4C(C)(C)C(=O)C=C[C@@]45C[C@@]35CC[C@]12C
EC50 (µM): 123

[ask] Under HepG2: report EC50 of COc1cc(C2Oc3cc([C@H]4Oc5cc(O)cc(O)c5C(=O)[C@@H]4O)ccc3OC2CO)ccc1O (some centres undefined) .
[reply] 75.7

Where these numbers come from: ChEMBL document CHEMBL1152971
